# Tested on: CCRF-CEM
# assay_remarks: Cytotoxicity (XTT) on CCRF-CEM cells
# Assay type: cell-based, human
# run_parameters: 10 μM, 72 h
# Procedure: The cytotoxicity of the substances was measured on four tumour cell lines: CCRF-CEM, HepG2, Hela, HL-60. All cell lines were purchased from ATCC (Manassas, VA, USA). Cells were cultured in RPMI-1640 or DMEM medium containing 10% (wt/wt) FBS and 1% (wt/wt) GlutaMax. […] After one hour of incubation with the dye, the absorbance at 495 nm was measured and the signal was compared with the control (100% viability=cells without test substance).
observation_type: Cell viability CEM 10 μM (% vs. control)
Please give a number only; it is taken to be in % vs. control.

# example entries with known answers
COC(=O)[C@H](Cc1ccccc1)NC(=O)CNC(=O)C(=O)[C@@H]1CCCN1C(=O)CNC(=O)c1ccnc2ccccc12 [Compound 5f] | 98
O=C(NC1CC1)C(=O)[C@@H]1CCCN1C(=O)CNC(=O)c1ccnc2ccccc12 [Compound 3h] | 94
CC(C)(C)OC(=O)CNC(=O)C(=O)[C@@H]1CCCN1C(=O)CNC(=O)c1ccnc2ccccc12 [Compound 3l] | 104
COC(=O)[C@H](CCC(N)=O)NC(=O)CNC(=O)C(=O)[C@@H]1CCCN1C(=O)CNC(=O)c1ccnc2ccccc12 [Compound 5g] | 114
COC(=O)[C@H](CCCCNC(=O)OCc1ccccc1)NC(=O)CNC(=O)C(=O)[C@@H]1CCCN1C(=O)CNC(=O)c1ccnc2ccccc12 [Compound 5i] | 107

Moving on to another compound below.
Fill in the blank: the reported Cell viability CEM 10 μM of COc1ccc(CNC(=O)C(=O)[C@@H]2CCCN2C(=O)CNC(=O)c2ccnc3ccccc23)cc1OC [Compound 3b] is ____.
106

====

# assay_remarks: Stability in murine plasma
# Format: in vitro ADME
# run_parameters: 37° C., up to 120 minutes
# Protocol: An aliquot of plasma was extracted with 120 μl of methanol containing caffeine as an internal standard. The solution was vortexed (5 min) and centrifuged (20500 g; 10 min), the supernatant was transferred to a vial, and 1 μl of the mixture was used for LC-MS analysis. […] Results are presented as the percentage of test substance versus control (aliquot taken at time 0).
observation_type: Stability in murine plasma

COC(=O)[C@H](Cc1ccccc1)NC(=O)CNC(=O)C(=O)[C@@H]1CCCN1C(=O)CNC(=O)c1ccnc2ccccc12 | degrade immediately
O=C(NCc1ccccc1)C(=O)[C@@H]1CCCN1C(=O)CNC(=O)c1ccnc2ccccc12 | stable
COC(=O)[C@H](CCC(=O)OCc1ccccc1)NC(=O)CNC(=O)C(=O)[C@@H]1CCCN1C(=O)CNC(=O)c1ccnc2ccccc12 | degrade immediately
COc1ccc(CCNC(=O)C(=O)[C@@H]2CCCN2C(=O)CNC(=O)c2ccnc3ccccc23)cc1OC | stable

====

Items are presented alongside their recorded Cell viability HepG2 10 μM.
# Test system: HepG2
# assay_remarks: Cytotoxicity (XTT) on HepG2 cells
# Format: cell-based, human
# run_parameters: 10 μM, 72 h
Give the number first and the unit second.

Field: example entries. Status: answers known.
O=C(NCCc1ccccc1)C(=O)[C@@H]1CCCN1C(=O)CNC(=O)c1ccnc2ccccc12 | 88 % vs. control
CC(C)NC(=O)CNC(=O)C(=O)[C@@H]1CCCN1C(=O)CNC(=O)c1ccnc2ccccc12 | 96 % vs. control
COC(=O)CNC(=O)C(=O)[C@@H]1CCCN1C(=O)CNC(=O)c1ccnc2ccccc12 | 109 % vs. control

# lookup: Cell viability HepG2 10 μM of `O=C(NCc1ccccc1)C(=O)[C@@H]1CCCN1C(=O)CNC(=O)c1ccnc2ccccc12`
103 % vs. control
